subject of test: COUP transcription factor 2 (Homo sapiens, UniProt P24468)
Sequence (P24468 whole entry): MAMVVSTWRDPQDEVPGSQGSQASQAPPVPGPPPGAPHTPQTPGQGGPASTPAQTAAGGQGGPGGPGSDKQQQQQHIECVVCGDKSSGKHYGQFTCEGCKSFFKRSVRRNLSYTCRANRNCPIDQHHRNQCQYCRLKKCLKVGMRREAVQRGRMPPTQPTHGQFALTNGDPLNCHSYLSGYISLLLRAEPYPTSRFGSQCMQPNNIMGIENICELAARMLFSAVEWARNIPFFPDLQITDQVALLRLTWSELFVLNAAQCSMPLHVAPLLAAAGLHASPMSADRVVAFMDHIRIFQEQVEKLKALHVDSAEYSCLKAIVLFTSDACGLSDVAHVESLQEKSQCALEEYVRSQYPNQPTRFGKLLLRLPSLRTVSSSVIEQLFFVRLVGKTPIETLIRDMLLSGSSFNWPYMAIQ
test protocol: Luminescence-based cell-based high throughput dose response assay to identify inhibitors of COUP-TFII (NR2F2).
Assay type: functional
The source made the active and inactive calls.
Use one of these outcomes when replying: 1 (yes) for active, 0 (no) for inactive

- compound: "CCN(CC)S(=O)(=O)c1cccc(NC(=O)COC(=O)c2[nH]c(C)c(C(C)=O)c2C)c1"
  category label: "1 (yes)"
- compound: "Nc1nc2ccccc2cc1C(=O)NCc1ccc(-c2ccccc2)cc1"
  category label: "1 (yes)"
- compound: "C=CCC1(CC=C)CCCN1C(=O)c1cc(COc2ccc(C)nc2)on1"
  category label: "0 (no)"
- compound: "Cc1cc(C(=O)NC2CCCc3c2cnn3-c2ccc(C)c(C)c2)n(C)n1 (stereo not given)"
  category label: "1 (yes)"

Now for another entry.
Exam item: Lab log entry: NC(=O)c1ccsc1NC(=O)COC(=O)Cc1cccc2ccccc12 — outcome as called in the assay?
Marked response: 0 (no)

###

test protocol: inhibitors of firefly luciferase expression or activity, dose response, H4 neuroglioma cells, luminescence (AID 1990)
Assay type: functional, cell-based
Below is a list of entries, each paired with its recorded EC50 value.

Exam item: Fill in the blank: the reported EC50 of CNC(=O)c1cccn(Cc2cccc(C(F)(F)F)c2)c1=O is ____.
Marked response: > 120 µM (not active)

###

Catalogue of EC50 readings, one per entry.
subject of test: Streptokinase A (Streptococcus pyogenes serotype M1)
Sequence (P10520 whole entry): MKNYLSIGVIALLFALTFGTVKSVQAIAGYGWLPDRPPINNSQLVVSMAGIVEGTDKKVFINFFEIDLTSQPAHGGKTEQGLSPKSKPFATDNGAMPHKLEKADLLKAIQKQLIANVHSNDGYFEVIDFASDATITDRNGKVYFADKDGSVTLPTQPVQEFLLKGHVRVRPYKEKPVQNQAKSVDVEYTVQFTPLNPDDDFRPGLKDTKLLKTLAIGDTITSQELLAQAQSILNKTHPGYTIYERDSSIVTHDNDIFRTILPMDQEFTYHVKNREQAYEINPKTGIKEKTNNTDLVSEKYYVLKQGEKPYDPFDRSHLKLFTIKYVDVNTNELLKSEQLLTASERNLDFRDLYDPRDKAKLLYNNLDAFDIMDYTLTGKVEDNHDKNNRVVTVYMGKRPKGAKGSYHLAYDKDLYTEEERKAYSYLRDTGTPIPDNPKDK
test protocol: S. pyogenes streptokinase expression inhibitors, potency, dose response, plasminogen activation absorbance, OD405 (AID 1914);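 also: secreted streptokinase activity via plasminogen activation per viability signal from cell pellet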
Format: functional, Streptococcus pyogenes M1 GAS
Activity calls are given as the source filed them.

Past entries and their recorded results:
- smiles: "C=C(C)COc1ccc(-c2n[nH]cc2Oc2cccc(OC)c2)c(O)c1"
  subject of test: "Streptokinase A (Streptococcus pyogenes serotype M1)"
  EC50: "> 150 µM (not active)"
- smiles: "CC(C)(C)c1cc(NCc2ccccn2)n2ncc(-c3ccccc3)c2n1"
  subject of test: "Streptokinase A (Streptococcus pyogenes serotype M1)"
  EC50: "30 µM (active)"

Exam item: Any idea what its EC50 is? The molecule is FC(F)(F)c1cc(CCN2C(=S)NC[C@@H]2CC2CCCCC2)cc(C(F)(F)F)c1
Marked response: 7 µM (active)

Exam item: Quick one: COc1ccc(/C=N/Nc2nc(Nc3ccccc3)nc(N3CCCCC3)n2)cc1OC
Marked response: > 150 µM (not active)

Exam item: Now this one: CCOc1ccc(NC(=O)c2c(NC(=O)CNCCN3CCOCC3)sc3c2CCC3)cc1
Marked response: > 150 µM (not active)

Exam item: Same for CC(C)C(=O)Nc1ccc(C(=O)NNC(=S)NC(=O)c2cccs2)cc1
Marked response: > 150 µM (not active)

###

Listing of entries alongside the reported IC50.
subject of test: Tumor necrosis factor (Homo sapiens)
Sequence (P01375 whole entry): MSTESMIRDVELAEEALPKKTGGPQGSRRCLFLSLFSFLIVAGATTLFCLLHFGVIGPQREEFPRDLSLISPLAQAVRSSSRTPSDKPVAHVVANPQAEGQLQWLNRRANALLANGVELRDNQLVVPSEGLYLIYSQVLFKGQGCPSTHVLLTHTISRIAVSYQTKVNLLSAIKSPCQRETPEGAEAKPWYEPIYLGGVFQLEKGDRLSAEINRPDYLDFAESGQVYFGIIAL
test protocol: TNFa-triggered NF-kB activation inhibitors, SAR follow-up, cell-based, revised (AID 2337)
Format: functional
Activity calls are given as the source filed them.

- molecule: "Cc1ccc(NC(=O)C2CCN(S(=O)(=O)c3ccc4c(c3)NC(=O)C(C)S4)CC2)cc1Cl (stereo not given)"
  IC50: "2.84 µM (active)"

Exam item: Given Cc1cc(C(=O)NC2CCCc3c2cnn3-c2ccc(C)c(C)c2)n(C)n1 (stereo not given) , state its recorded IC50.
Marked response: 0.0793 µM (active)

Exam item: Same question for O=C(c1ccc(S(=O)(=O)c2cccc(Cl)c2)c([N+](=O)[O-])c1)N1CCN(c2ccccn2)CC1 please.
Marked response: 4.43 µM (active)

Exam item: Request: Cc1nn(-c2ccccc2)c2nc(C(Cl)(Cl)Cl)[nH]c(=O)c12
Marked response: 6.62 µM (active)

Exam item: Similarly, C=CCC1(CC=C)CCCN1C(=O)c1cc(COc2ccc(C)nc2)on1 ?
Marked response: 4.24 µM (active)

###

subject of test: Carboxy-terminal domain RNA polymerase II polypeptide A small phosphatase 1 (Homo sapiens)
Sequence (Q9GZU7 whole entry): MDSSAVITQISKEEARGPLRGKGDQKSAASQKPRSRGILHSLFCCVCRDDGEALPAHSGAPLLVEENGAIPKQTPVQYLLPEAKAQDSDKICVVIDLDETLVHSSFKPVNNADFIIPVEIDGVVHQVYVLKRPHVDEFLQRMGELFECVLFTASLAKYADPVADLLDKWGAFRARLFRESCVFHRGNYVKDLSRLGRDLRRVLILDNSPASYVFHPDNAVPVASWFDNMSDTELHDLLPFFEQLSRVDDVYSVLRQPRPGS
test protocol: inhibitors of CTDSP1, concentration-response testing, biochemical assay, absorbance-based, actives from ultra-high-throughput screening (AID 540297)
Format: functional
Activity calls are given as the source filed them.
endpoint name: IC50

Use these answered entries as a reference point.
- compound: "O=C(Cc1ccc(S(=O)(=O)N2CCOCC2)s1)NC1CCCCC1"
  meas value: "7.34 µM (active)"
- compound: "CC(=O)Nc1ccc(S(=O)(=O)NC2=NC(=O)/C(=C\\c3ccco3)S2)cc1"
  meas value: "7.44 µM (active)"
- compound: "Cc1ccc(Cl)cc1N1CCN(C(=O)CSc2ccsc2[N+](=O)[O-])CC1"
  meas value: "6.96 µM (active)"
- compound: "O=C(COC(=O)c1cccc(S(=O)(=O)N2CCN(c3ccccc3)CC2)c1)NCc1ccco1"
  meas value: "4.41 µM (active)"
- compound: "Cc1ccc(CSCC(=O)N/N=C/c2ccc(OCC(=O)Nc3ccc(C)cc3)cc2)cc1"
  meas value: "3.43 µM (active)"

Exam item: Bench note: what IC50 did NC(=O)C(CC(=O)O)NC(=O)[C@@H]1CCCNc2c(I)cc([N+](=O)[O-])cc2C(=O)N[C@@H](CO)C(=O)N[C@@H](Cc2ccc(O)cc2)C(=O)N1 (stereo partly specified) show?
Marked response: 19.7 µM (active)

###

AC50 values by entry
Tested on: INS1
test protocol: beta cell apoptosis inhibitors, cytokine rescue, dose response, luminescence, retest (AID 449756);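 also: cell death triggered by IL-1 beta plus TNF-alpha plus IFN-gamma mixture; protective hits raise ATP signal compared with cytokine alone wells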
Type: functional, cell-based
experimental parameters: Rattus norvegicus
Calls of active or inactive are those of the source.

Consider the reported AC50 for these compounds:
- smiles: "C=CCC1(CC=C)CCCN1C(=O)c1cc(COc2ccc(C)nc2)on1"
  subject of test: "INS1"
  AC50: "2.13 µM (active)"
- smiles: "O=C(NCc1cccnc1)c1ccc(NC(=O)c2ccc([N+](=O)[O-])cc2)cc1"
  subject of test: "INS1"
  AC50: "< 0.195 µM (active)"
- smiles: "COc1ncnc(OC)c1S(=O)(=O)Nc1ccc(C(F)(F)F)cc1"
  subject of test: "INS1"
  AC50: "> 260 µM (inactive)"

Exam item: AC50 of COCCn1c(SCC(=O)/C=C2\N(C)c3ccccc3C2(C)C)nnc1-c1ccncc1 on INS1?
Marked response: 6.34 µM (active)

Exam item: Next up: Cc1ccc(-c2ccc(/C=C3\C(=O)ON=C3c3ccccc3)o2)c([N+](=O)[O-])c1
Marked response: 7.23 µM (active)

Exam item: Ok, now Cc1ccc2c(C)ccc(O)c2n1
Marked response: 61 µM (active)

Exam item: Can you handle Cc1c(C(=O)Nc2nc(-c3ccccn3)cs2)oc2ccccc12 next?
Marked response: 5.62 µM (active)

###

Test system: Streptococcus sp. 'group A'
test protocol: growth inhibition of control SK(-) GAS strain, dose response, counter-screen for streptokinase expression inhibitor project, luminescence, kanamycin, BacTiterGlo, confirmation (AID 1900)
Assay type: functional, organism-based
Activity calls are given as the source filed them.
endpoint name: EC50

- compound: "CCOC(=O)C1=C(C)n2c(s/c(=C/c3cccc([N+](=O)[O-])c3)c2=O)=NC1c1ccc(O)c(OC)c1 (configuration not stated)"
  EC50: "8.14 µM (active)"
- compound: "Cc1ccc(-c2nc3c(Cl)cc(Cl)cc3c(=O)n2O)cc1"
  EC50: "2.19 µM (active)"
- compound: "O=C(O)c1ccc(N/N=C/c2ccc(OC(=O)c3ccccc3Cl)cc2)cc1"
  EC50: "2.91 µM (active)"

Exam item: # get_value(readout='EC50', item= O=C(c1cnn2c(C(F)(F)F)cc(-c3ccc(F)cc3)nc12)N1CCc2ccccc2C1 )
Marked response: 14 µM (active)

Exam item: What do you have for Nc1ccc(C#Cc2ccc3oc4ccccc4c(=O)c3c2)cc1 ?
Marked response: 2.5 µM (active)

Exam item: Subsequent entry: C=C(C)COc1ccc(-c2n[nH]cc2Oc2cccc(OC)c2)c(O)c1
Marked response: 8.18 µM (active)

Exam item: Thanks! And Cc1cc(C)c(CSc2nc(-c3ccc([N+](=O)[O-])cc3)c[nH]2)c(C)c1 ?
Marked response: 3.92 µM (active)

Data origin: ChEMBL document CHEMBL1201862
